From: ChEMBL document CHEMBL1961873

System name: Serine/threonine-protein kinase D2 (Homo sapiens) (UniProt Q9BZL6);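 note: reported percent inhibition values are means, part of the GSK PKIS kinase panel screen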
Sequence (Q9BZL6 whole entry): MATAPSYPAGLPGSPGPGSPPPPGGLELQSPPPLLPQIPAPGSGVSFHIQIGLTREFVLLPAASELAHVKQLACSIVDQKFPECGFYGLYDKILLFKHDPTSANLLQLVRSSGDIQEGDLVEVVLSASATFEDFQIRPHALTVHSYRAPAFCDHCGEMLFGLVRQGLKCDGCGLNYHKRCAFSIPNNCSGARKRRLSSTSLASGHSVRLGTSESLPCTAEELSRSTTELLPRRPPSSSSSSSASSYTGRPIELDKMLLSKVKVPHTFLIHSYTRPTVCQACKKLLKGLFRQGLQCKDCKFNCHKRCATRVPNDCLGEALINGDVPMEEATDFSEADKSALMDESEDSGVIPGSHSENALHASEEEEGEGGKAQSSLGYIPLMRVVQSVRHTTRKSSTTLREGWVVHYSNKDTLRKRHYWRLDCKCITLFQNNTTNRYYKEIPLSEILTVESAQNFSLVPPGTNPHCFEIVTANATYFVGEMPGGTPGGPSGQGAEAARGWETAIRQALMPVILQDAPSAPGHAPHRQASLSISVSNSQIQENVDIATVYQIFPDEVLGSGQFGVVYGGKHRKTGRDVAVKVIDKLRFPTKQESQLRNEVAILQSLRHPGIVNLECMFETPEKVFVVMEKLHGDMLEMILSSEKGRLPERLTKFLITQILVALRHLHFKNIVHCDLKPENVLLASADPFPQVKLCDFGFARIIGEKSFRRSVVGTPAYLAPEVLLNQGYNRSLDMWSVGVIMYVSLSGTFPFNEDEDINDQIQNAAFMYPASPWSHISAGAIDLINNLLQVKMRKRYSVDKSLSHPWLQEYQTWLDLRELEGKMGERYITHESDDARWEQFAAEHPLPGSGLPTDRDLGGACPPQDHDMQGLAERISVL
Experimental setup: at 0.1 µM
Measured endpoint: inhibition

[[record]]
compound = "CC(C)c1ccc(-c2cc(-c3c[nH]nc3-c3ccccn3)ccn2)cc1"
measured = "1.16%"

[[record]]
compound = "COc1ccc2ncn(-c3cc(O[C@H](C)c4ccccc4C(F)(F)F)c(C(N)=O)s3)c2c1"
measured = "2.18%"

[[record]]
compound = "NS(=O)(=O)c1ccc(N/N=C2\\C(=O)Nc3ccc(C(=O)NCc4ccncc4)cc32)cc1"
measured = "6.54%"

[[record]]
compound = "c1ccc(-c2n[nH]cc2-c2ccnc(-c3ccc(OCCn4ccnc4)cc3)c2)nc1"
measured = "14.6%"

[[record]]
compound = "O=C(O[C@H]1CN[C@H](C#Cc2cc3ncnc(Nc4ccc5c(ccn5Cc5cc(F)ccc5F)c4)c3s2)C1)N1CCOCC1"
measured = "4.5%"

[[record]]
compound = "CN(C)CCNC(=O)Nc1ccc(N(C)c2ccnc(Nc3ccc(CS(C)(=O)=O)cc3)n2)cc1"
measured = "3.75%"

[[record]]
compound = "CN1CCC(n2cnc(-c3ccc(F)cc3)c2-c2ccnc(NCCO)n2)CC1"
measured = "4.75%"

[[record]]
compound = "O=C(Nc1n[nH]c2nnc(-c3cccnc3)cc12)C1CC1"
measured = "-1.06%"

[[record]]
compound = "CNC(=O)c1cncc(/C=C/c2ccccc2C)c1"
measured = "3.71%"

[[record]]
compound = "CNC(=O)c1sc(-n2cnc3cc(OC)c(OC)cc32)cc1OCc1ccccc1C(F)(F)F"
measured = "4%"

[[record]]
compound = "CC1=C(C(=O)Nc2ccc3[nH]nc(C)c3c2)C(c2ccc(C(F)(F)F)cc2)CC(=O)N1 (centres undefined)"
measured = "2.82%"

[[record]]
compound = "Cc1ccc(-c2cc3c(NC(=O)C4CC4)ncnc3o2)cc1"
measured = "4.1%"

[[record]]
compound = "COc1cc(N2CCN(C(C)C)CC2)ccc1Nc1nc(Nc2cccc(F)c2C(=O)O)c2cc[nH]c2n1"
measured = "3.65%"

[[record]]
compound = "CS(=O)(=O)Nc1ccc(-c2cc(-c3ccccc3)cc(C(N)=O)c2N)cc1"
measured = "0.22%"

[[record]]
compound = "COc1cc(N2CCN(C(C)C)CC2)ccc1Nc1nc(Nc2cccc3ncccc23)c2cc[nH]c2n1"
measured = "0.68%"

[[record]]
compound = "CS(=O)(=O)Nc1ccc(-c2ccc3c(NC(=O)C4CC4)n[nH]c3c2)cc1"
measured = "3.14%"

[[record]]
compound = "COc1ccc(Nc2ncc(-c3ccccc3)o2)cc1OC"
measured = "0.6%"

[[record]]
compound = "O=C1Nc2ccccc2/C1=C1\\CCc2cc(O)ccc21"
measured = "6.34%"

[[record]]
compound = "COc1ccc(-c2nn3ncccc3c2-c2ccnc(Nc3ccc(F)c(F)c3)n2)cc1"
measured = "3.52%"

[[record]]
compound = "FC(F)(F)CNc1nccc(-c2cnn3ncccc23)n1"
measured = "3.32%"

[[record]]
compound = "CS(=O)(=O)CCNCc1ccoc1-c1ccc2ncnc(Nc3ccc(OCc4ccccc4)cc3)c2c1"
measured = "1.46%"

[[record]]
compound = "COc1cccc(Nc2nccc(-c3cnn4ncccc34)n2)c1"
measured = "2.78%"

[[record]]
compound = "CCN1CCC(C(=O)Nc2n[nH]c3nnc(-c4cccc(F)c4F)cc23)CC1"
measured = "0.26%"

[[record]]
compound = "COc1cc2c(cc1Nc1nc(Nc3cccc(F)c3C(N)=O)c3cc[nH]c3n1)N(C(=O)CN1CCN(C(C)C)CC1)CC2"
measured = "4.84%"

[[record]]
compound = "CCS(=O)(=O)c1ccc(OC)c(Nc2ncc(-c3cccc(C(C)=O)c3)o2)c1"
measured = "2.04%"

[[record]]
compound = "c1cnn2ncc(-c3ccnc(NCCCN4CCOCC4)n3)c2c1"
measured = "3.62%"

[[record]]
compound = "N#Cc1cccc(Nc2ncc(-c3ccccc3)o2)c1"
measured = "1.97%"

[[record]]
compound = "O=C(O[C@H]1CN[C@H](C#Cc2cc3ncnc(Nc4ccc(OCc5cccc(F)c5)c(Cl)c4)c3s2)C1)N1CCOCC1"
measured = "6.18%"

[[record]]
compound = "CN(c1ccc(NC(=O)NCCN2CCOCC2)cc1)c1ccnc(Nc2ccc(CS(C)(=O)=O)cc2)n1"
measured = "2%"

[[record]]
compound = "CCOc1ccc2c(-c3ccnc(Nc4cc(OC)cc(C(F)(F)F)c4)n3)cnn2n1"
measured = "0.66%"

[[record]]
compound = "N#Cc1ccc2c(-c3ccnc(NC4CC4)n3)c(-c3ccc(F)cc3)nn2c1"
measured = "5.96%"

[[record]]
compound = "OCCCNc1nccc(-c2c(-c3ccc(F)cc3)nn3cc(C(F)(F)F)ccc23)n1"
measured = "2.01%"

[[record]]
compound = "CCS(=O)(=O)c1ccc(OC)c(Nc2ncc(-c3cccc(F)c3)o2)c1"
measured = "3.92%"

[[record]]
compound = "CC1=C(C(=O)Nc2ccc3[nH]ncc3c2)C(c2ccc(F)cc2)N=C(c2ccc(C(F)(F)F)nc2)N1 (centres undefined)"
measured = "2.6%"

